Hello, the source for this data is ChEMBL document CHEMBL1137218, in case you need it.

# Test system: Rattus norvegicus
# assay text: Percent change from pre-treatment HDL-Cholesterol level at 100 mg/Kg after 1 week
# Assay type: functional
measurement type: Change

Please review the entries below; each comes with its answer.
CC(C)(CCCCCCCCCCCC(C)(C)C(=O)O)C(=O)O = -14%
CC(C)(CO)CCCC1CCCC(CCCC(C)(C)CO)O1 (stereo not given) = 75%

Please go through the list and note Change for each molecule.
1. CC(CO)(CCCOCCCC(C)(CO)c1ccccc1)c1ccccc1 (stereo not given)
2. CC(C)(CO)CCCCCCCCCC(C)(C)CO
3. CC(C)(CO)CCCCCOCCCCCC(C)(C)CO
4. CC(C)(CO)Cc1cccc(Oc2cccc(CC(C)(C)CO)c2)c1
5. CC(C)(CO)CCCCOCCCCC(C)(CO)c1ccccc1 (stereo not given)

Reply:
7%
189%
99%
17%
26%

Could you report Change for every entry in the following list?
1. CC(C)(CO)CCCCOCCCCC(C)(C)CO
2. CC(C)(CO)CCCCCCCCCCCC(C)(C)CO
3. CC(C)(CO)CCCOCCOCCCC(C)(C)CO
4. CC(C)(CO)CCCCOCCCCC(C)(C)COC1CCCCO1 (stereo not given)
5. CC(C)(CCCOCCOCCCC(C)(C)C(=O)O)C(=O)O
6. CC(C)(CCCCOCCCCC(C)(C)COC1CCCCO1)COC1CCCCO1 (stereo not given)
7. CC(C)(Cc1cccc(Oc2cccc(CC(C)(C)C(=O)O)c2)c1)C(=O)O

Reply:
1: 234%; 2: -5%; 3: 3%; 4: 130%; 5: -6%; 6: 43%; 7: 20%

In plain terms, CC(C)(CCCCOCCCCC(C)(C)CCC(=O)O)CCC(=O)O has a documented Change of 13%

====

# Test system: Rattus norvegicus
# assay text: Percent change from pre-treatment triglycerides level at 100 mg/Kg after 1 week
# Type: functional
For each record, write down the corresponding Change.
Give bare numbers, in %.

Illustrative cases are given below, each with its answer.
CC(C)(CO)CCCCOCCCCC(C)(C)COC1CCCCO1 (stereo unspecified) = -69
CC(C)(CO)CCCOCCOCCCC(C)(C)CO = -9
CC(C)(CCCCOCCCCC(C)(C)CCC(=O)O)CCC(=O)O = -80

Quick one: give me Change for each item below, same order please.
1. CC(C)(CO)CCCCOCCCCC(C)(CO)c1ccccc1 (stereo unspecified)
2. CC(C)(CO)Cc1cccc(Oc2cccc(CC(C)(C)CO)c2)c1
3. CC(C)(CO)CCCCOCCCCC(C)(C)CO

Reply:
[-61, -32, -77]

====

# Tested on: Rattus norvegicus
# assay text: Percent change from pre-treatment triglycerides level at 100 mg/Kg after 2 weeks
# Format: functional
Kindly supply the reported Change values for the records listed here.
Answers are plain numbers, in %.

Sample records with Change:
CC(C)(CO)CCCC1CCCC(CCCC(C)(C)CO)O1 (configuration not stated) = -46
CC(C)(CO)CCCCCCCCCCCC(C)(C)CO = -35
CC(C)(Cc1cccc(Oc2cccc(CC(C)(C)C(=O)O)c2)c1)C(=O)O = -27
CC(C)(CCCCOCCCCC(C)(C)COC1CCCCO1)COC1CCCCO1 (configuration not stated) = 22

// each listed molecule needs a value for Change
1. CC(C)(CCCOCCOCCCC(C)(C)C(=O)O)C(=O)O
2. CC(C)(CO)CCCCOCCCCC(C)(C)COC1CCCCO1 (configuration not stated)
3. CC(C)(CO)CCCCCOCCCCCC(C)(C)CO
4. CC(C)(CO)CCCOCCOCCCC(C)(C)CO

Reply:
[-13, -63, -82, 6]
